# System: Escherichia coli TOP10;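 note: peptides expressed intracellularly from a pBAD plasmid library in pooled LB shake-flask culture, induced with 0.3% L-arabinose, DNA abundance read by NGS, three biological replicates, DESeq2 with apeglm shrinkage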
# measurement.description: shrunken log2 fold change of peptide-encoding DNA abundance (4.5 h post-induction vs induction); higher = less antimicrobial activity (less host growth inhibition)
# condition.notes: time post-induction: 4.5 h; library: site-saturation at positions 5, 18, 19, 20
Cut-off 0.1 on shrunken log2 fold change, inclusive. At or above means y; below means n.

> print(dat)
             sequence.data         subject.of.test  category.label
1  RRIRTRPPRLPRPRPRPYKPPRP  Escherichia coli TOP10               n
2  RRIRLRPPRLPRPRPRPDGTPRP  Escherichia coli TOP10               y
3  RRIRLRPPRLPRPRPRPFKDPRP  Escherichia coli TOP10               n
4  RRIRHRPPRLPRPRPRPTSHPRP  Escherichia coli TOP10               n
5  RRIRARPPRLPRPRPRPPFSPRP  Escherichia coli TOP10               y
6  RRIRDRPPRLPRPRPRPGLTPRP  Escherichia coli TOP10               y
7  RRIRDRPPRLPRPRPRPPGIPRP  Escherichia coli TOP10               y
8  RRIRPRPPRLPRPRPRPGAWPRP  Escherichia coli TOP10               y

The values you see were collected from the supplement of paper PMC9112550.
